Biological target: T1, Anti-PSMA Fab (SEQ ID NOs: 19, 20)
T1 construct: In the phage ELISA the Fab was biotinylated and captured on neutravidin coated plates; also called 006 PSMA Fab
Assay: phage binding ELISA on captured PSMA Fab, wells pre-incubated with PSMA antigen as competitor
Where no end group is shown, it is not given here.
Task for the reader: assign each of the following binders its reported Anti-PSMA Fab signal in the presence of PSMA.
Give bare numbers.

[
  {
    "binder": "LGNWCIPEWMCYGM (cysteine pairing not given here; also: fused to phage pIII (clonal phage display), Clonal phage of the Peptide-180 library) [Phage-2099]",
    "endpoint-result": 0.078
  }
]

Items follow; give Anti-PSMA Fab signal in the presence of PSMA for each.
1. QGIMCIPEWMCSAI (Clonal phage of the Peptide-180 library) [Phage-2097]
2. VETWCTPRWMCEGF (Clonal phage of the Peptide-180 library) [Phage-2093]
3. PDHWCIPSWMCMSQ (Clonal phage of the Peptide-180 library) [Phage-2096]
4. ETRWCVPEWMCYGI (cysteine pairing not given here; also: fused to phage pIII, pIII sequence and linker not given here, Clonal phage of the Peptide-180 library) [Phage-2091]
5. FEKWCIPSWMCSGP (cysteine pairing not given here; also: fused to phage pIII, pIII sequence and linker not given here, Clonal phage of the Peptide-180 library) [Phage-2087]

1. 0.0664
2. 0.0881
3. 0.0974
4. 0.0943
5. 0.097
